Origin of values: ChEMBL document CHEMBL3886282

Assign IC50 to each entry below.

IN: Give IC50 for this entry on Glycylpeptide N-tetradecanoyltransferase 1 (Homo sapiens, UniProt P30419): Cc1nn(C)c(C)c1N(C(F)F)S(=O)(=O)c1c(Cl)cc(CCCOC2CC(C)(C)N(C)C(C)(C)C2)cc1Cl
Sequence (P30419 whole entry): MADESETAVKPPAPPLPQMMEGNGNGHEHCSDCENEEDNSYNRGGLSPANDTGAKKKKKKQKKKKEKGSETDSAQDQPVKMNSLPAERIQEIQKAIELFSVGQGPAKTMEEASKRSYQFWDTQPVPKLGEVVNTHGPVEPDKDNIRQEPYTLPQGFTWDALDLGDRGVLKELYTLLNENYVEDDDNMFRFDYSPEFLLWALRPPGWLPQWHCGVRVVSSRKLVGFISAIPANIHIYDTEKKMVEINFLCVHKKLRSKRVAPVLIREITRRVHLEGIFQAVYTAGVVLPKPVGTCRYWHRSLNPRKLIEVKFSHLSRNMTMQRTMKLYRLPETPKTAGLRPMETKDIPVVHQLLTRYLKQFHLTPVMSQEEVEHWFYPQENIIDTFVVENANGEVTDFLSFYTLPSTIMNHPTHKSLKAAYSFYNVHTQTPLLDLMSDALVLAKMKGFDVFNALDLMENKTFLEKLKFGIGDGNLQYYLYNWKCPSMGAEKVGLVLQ
OUT: > 1000 nM

IN: Please report the measured IC50 for Cc1nn(C)c(C)c1N(C(F)F)[S+](=O)([O-])c1c(Cl)cc(Br)cc1Cl tested on Glycylpeptide N-tetradecanoyltransferase 1 (Homo sapiens, UniProt P30419).
OUT: > 1000 nM
